System: toxic extensor seizure
Test Protocol: maximal electroshock test (MES), mouse; block of the toxic extensor seizure (Swinyard 1952 method)
Type: in vivo
Stated Conditions: ip
Text: The compound of formula (I) are useful as anticonvulsant agents. The anticonvulsant activity of the subject compounds was determine using a standard "maximal electroshock test" (MES). In this test, activity is indicated by a block of the toxic extensor seizure, as described by Swinyard et al in J. Pharmacol,. Exptl. Therap. 106, 319 (1952). A more recent description of current anticonvulsant drug screening is given in Swinyard et al., in Epilepsia 19, 409 (1978).
Catalogue of molecules with associated ED50
Give just the numeric value; mg/kg need not be written.

1. Cn1cc(C(=O)CN2CCCCCC2)cc1C(=O)c1ccc(Cl)cc1 27.5
2. Cn1cc(C(=O)CN2CCCC2)cc1C(=O)c1cccc(Cl)c1 16.5
3. CCN(CC)CC(=O)c1c(C)c(C(=O)c2ccc(Cl)cc2)n(C)c1C 10.3
4. CCN(CC)CC(=O)c1c(C)c(C(=O)c2ccc(Cl)cc2Cl)n(C)c1C 14.9
5. CCN(CC)CC(=O)c1cc(C(=O)c2ccc(Cl)cc2)n(C)c1 14.4

Req: Request the reported ED50 associated with `CCN(CC)CC(=O)c1cc(C(=O)c2ccc(OC)cc2)n(C)c1`
Resp: 33

Req: Try this molecule too: `Cn1cc(C(=O)CN2CCOCC2)cc1C(=O)c1cccc(Cl)c1`
Resp: 37.4

---

Test system: toxic extensor seizure
Test Protocol: maximal electroshock test (MES), mouse; block of the toxic extensor seizure (Swinyard 1952 method)
Type: in vivo
Stated Conditions: ip
# note: exactly 50 mg/kg is not below, so it is not satisfied; use satisfied for ED50 strictly under it

Example results:
1) Cn1cc(C(=O)CN2CCCCC2)cc1C(=O)c1ccccc1Cl satisfied
2) Cc1c(C(=O)CN2CCCC2)c(C)n(C)c1C(=O)c1ccc(Cl)cc1 satisfied
3) Cn1cc(C(=O)CN2CCCCC2)cc1C(=O)c1ccc(Cl)cc1 satisfied
4) O=C(CN1CCOCC1)c1c[nH]c(C(=O)c2ccc(Cl)cc2)c1 not satisfied

Now look at this one.
Req: Strictly below 50 mg/kg: is that where ED50 of `Cc1c(C(=O)CN2CCOCC2)c(C)n(C)c1C(=O)c1ccc(Cl)cc1` sits?
Resp: not satisfied

Value source: patent US5332736A
